Tested on: MS2 coat protein
Test: apparent KD of MS2 coat protein; designed switch direction (-1 OFF switch, 1 ON switch): 1; higher = weaker reporter binding
Conditions: input ligand: microRNA oligo, concentration not stated
observation.type: apparent KD of MS2 coat protein (nM)

input.sequence	system	endpoint.result
GCACUGGCGGUAGGAUAUCUAGGAUAUGGGAAAGACUAAGUCUGUAGGUCACCUAACCCAGAAGGAGAGAAGGACCCUGUAAGG [pwkr ssNG2 2FMN + F9.22] (Eterna round: R96, puzzle: Same State NG 2)	MS2 coat protein	1.33
UAGCUUGUGGUAGGAUAUCUAGGAUAUGGGAAGAGCUAAGCUUGGAAGUCACUUCACCCAGAAGGAGAGAAGGACCAGAGGCUU [pwkr ssNG2 2FMN + F9.6] (Eterna round: R96, puzzle: Same State NG 2)	MS2 coat protein	73.6
AGUCCAGCCUGAGCUGGACAAAAGCAUGUACAUGAGGAUCACCCAUGUCAUGUACAAGCUUUUUGCUCGUUUUAAAA [Zipper 46 - 13] (Eterna round: R96, puzzle: Sensor for hsa-mir-208a)	MS2 coat protein	12.9
GCACUGGCGGUAGGAUAUCUAGGAUAUGGGAAAGACUAAGUCUGUAGGUCACCUAACCCAGAAGGAGAGAAGGACACCGAAAGG [pwkr ssNG2 2FMN + F9.20] (Eterna round: R96, puzzle: Same State NG 2)	MS2 coat protein	16.5
UUUAUACAUGAGGAUCACCCAUGUCAACAAAGUCGAGGAUAUGGGCAUAUUAUCUUAUUUCCAGAAGGCGAAUUCU [salish99_ss1_r3_090] (Eterna round: R96, puzzle: Same State 1)	MS2 coat protein	305
GUGACCUCCCUAGGAUAUCGCCAAAUGUGAUGUCGACAUGAGGAUCACCCAUGUAUAGUCACGAACGAGAAGGAGGGUGUGGCA [Cesodi] (Eterna round: R96, puzzle: Same State NG 2)	MS2 coat protein	17.5
GAGUAGUUGGGAGGAUAUCCAUUGUUAUAGAAUGGAGAAGGUUUUAACAUGAGGAUCACCCAUGUAGGACUAUUCCUGUGUAUC [Parity 72 - Jieux - Same State NG 1] (Eterna round: R96, puzzle: Same State NG 1)	MS2 coat protein	12.2
CUGGCGCGCACAGGAUAUGCGGCCGGCAAGGUGGCAGAAGGGUGAUAAACAGACGACAUGAGGAUCACCCAUGUCGCAAAGAAU [Arsobe] (Eterna round: R96, puzzle: Same State NG 1)	MS2 coat protein	71.3
UUAUACUAGAGAGGAUAUGCAGAGGAUCACCCUGCAGAAGGCUCAUUAGAGAGGAUAUGCAGAGGAUCACCCUGCAGAAGGCUC [pwkr ssNG DX.21] (Eterna round: R96, puzzle: Same State NG 1)	MS2 coat protein	22.2
GGACGUCAUCUCACUGAUUAAACAUGAGGAUCACCCAUGUCAGAGGAUAUGAGUCCGAUUAGGACUCAGAAGGCUGUGACGUCC [Fiskers NG3ss - 46] (Eterna round: R96, puzzle: Same State NG 3)	MS2 coat protein	9.14
GGUAUCGACGCAGGAUAUGCUAUCCUUUGGGUAGCAGAAGGGUGGACAUGAGGAUCACCCAUGUGGGUGCCAGGGCGUGAGCCC [JL SSNG1 1.83] (Eterna round: R96, puzzle: Same State NG 1)	MS2 coat protein	12.8
UAGUGCGUUAGAGGAUAUUCAAGGUGAAAAAAAAAUACAUGAGGAUCACCCAUGUAAAAACAUGAGGAGAAGGCUGAUGUGCUA [Omei SS(NG)2 A] (Eterna round: R96, puzzle: Same State NG 2)	MS2 coat protein	38
UGUUGUAUUACAGGAUAUCUAGUAGUUUUAUUUAGAGAAGGGUAUUCACAUGAGGAUCACCCAUGUAUAUACGAGGAAGUUGUG [JMF's solution 36] (Eterna round: R96, puzzle: Same State NG 1)	MS2 coat protein	29.7
AAUUAAGAUCGAGGAUAUCACGUCGUUUAGACGUGAGAAGGCGAUCAUAACAUGAGGAUCACCCAUGUAUUACAUGAAUUAAUU [SSNG1/4-B3] (Eterna round: R96, puzzle: Same State NG 1)	MS2 coat protein	26.6
AAGAAACAUGAGGAUCACCCAUGUGAGAAUAUGGGAGGAUAUACAAGGACGUAAGUCAAGGUAGAAGGCCUAAGAA [Mat - Same State 1 - Meechl mod - D139] (Eterna round: R96, puzzle: Same State 1)	MS2 coat protein	143
GGUAGGUUACUACCAAUCUACAUGAGGAUCACCCAUGUGUGGAAGGAUAUGGUACCUAUUUGGUACCAGAAGGUCCAAUUAAUU [Fiskers NG3ss - 7] (Eterna round: R96, puzzle: Same State NG 3)	MS2 coat protein	64.7
AGGUUCGUGCUAGGAUAUCUAGGAUAUGGACGAGGAUUACCCGAGCAGGAUUACCGCACCAGAGGAGAGAAGGAGCAACAAGAG [pwkr ssNG2 2F5 2FMN.13] (Eterna round: R96, puzzle: Same State NG 2)	MS2 coat protein	5.01
UAUCCAUAGAUAGGAUAUUAGAGAACAUGAGGAUCACCCAUGUUUGGCUUGGUUUUAAGCUAAUCUGAGAAGGAUCUUGAUGAA [SameState NG2 #8] (Eterna round: R96, puzzle: Same State NG 2)	MS2 coat protein	185
